assay: Cmax in male BALB/c mouse at 50 mg/kg, po measured upto 24 hrs by LC-MS/MS analysis; format: ADME, organism-based; settings: in vivo
Reported endpoint: Cmax (ng/mL)
Give bare numbers, in ng/mL.

Please report the recorded Cmax for CN(C)CC1C(=O)O[C@H]2[C@H]1CC/C(CC(F)(F)F)=C\CC[C@@]1(C)O[C@@H]21.O=C(O)/C=C/C(=O)O (stereo partly specified) .
1080

###

assay: MRT (0 to t) in male BALB/c mouse at 10 mg/kg, iv measured upto 24 hrs by LC-MS/MS analysis; format: ADME, organism-based; conditions: in vivo
Reported endpoint: MRT last at 24 h
Your answer should be a number followed by the unit of measure.

// MRT last at 24 h lookup, key: CN(C)CC1C(=O)O[C@H]2[C@H]1CC/C(CC(F)(F)F)=C\CC[C@@]1(C)O[C@@H]21.O=C(O)/C=C/C(=O)O (stereo partly specified)
24.1 min

###

test: AUC (0 to t) in male BALB/c mouse at 50 mg/kg, po measured upto 24 hrs by LC-MS/MS analysis; assay type: ADME, organism-based; conditions: in vivo
Reported endpoint: AUC(0-t) at 24 h (µg·h/mL)
Give bare numbers, in µg·h/mL.

Requested field: AUC(0-t) at 24 h. Item: CN(C)CC1C(=O)O[C@H]2[C@H]1CC/C(CC(F)(F)F)=C\CC[C@@]1(C)O[C@@H]21.O=C(O)/C=C/C(=O)O (stereo partly specified)
0.991

###

assay: AUC (0 to infinity) in male BALB/c mouse at 10 mg/kg, iv measured upto 24 hrs by LC-MS/MS analysis; format: ADME, organism-based; conditions: in vivo
Reported endpoint: AUC(0-inf) (ng·h/mL)
Give bare numbers, in ng·h/mL.

AUC(0-inf) for CN(C)CC1C(=O)O[C@H]2[C@H]1CC/C(CC(F)(F)F)=C\CC[C@@]1(C)O[C@@H]21.O=C(O)/C=C/C(=O)O (stereo partly specified) ?
444
